B1: Gamma-crystallin D, residues 90 to 170; numbered along this chain, P07320 (parent)
chain: IRLYEREDYRGQMIEFTEDCSCLQDRFRFNEIHSLNVLEGSWVLYELSNYRGRQYLLMPGDYRRYQDWGATNARVGSLRRV

# Variants of: B1
# run.description: abundance fitness (aPCA) (normalised: wild type 0, dead -1); higher = more abundant; growth selection in yeast, the domain comes from the species named
# assay.context: Homo sapiens
abundance fitness listing for selected variants.

mutation.label | abundance fitness
N30G | 0.054
L23N | -0.055
L44C | -0.093
N30K | 0.107
S48T | -0.134
R6L | 0.012
Q12I | -0.061
S21K | -0.045
